assay: Metabolic stability in mouse liver microsomes assessed as compound remaining at 1 uM after 15 mins by LC/MS analysis; type: ADME, Microsome; conditions: read-out: Stability
measuredEndpoint: remaining at 0.25 h, 1 µM (%)

>>> recordedvalue("COCc1c(C(=O)NCc2ccncc2)cnn1-c1ncc(C)c(-c2cccs2)n1")
3

I: CCCc1c(C(=O)NC(C)(C)c2ccncc2)cnn1-c1ncc(C)c(-c2cccs2)n1
II: CCCCc1c(C(=O)NCc2sc(C)nc2C)cnn1-c1ncc(C)c(-c2cccs2)n1
QUERY: Pick one: I or II . Which has the bigger remaining at 0.25 h, 1 µM number? Let me know the label of the one you choose.
RESULT: II
(II: 10%, I: 2%)

###

test: Lipophilicity, log D of the compound at pH 7.4; format: physicochemical; conditions: buffer
measuredEndpoint: logD

>>> recordedvalue("CCOCc1c(C(=O)NCc2cncn2C)cnn1-c1ncc(C)c(N2CCCC2)n1")
2
>>> recordedvalue("CCOCc1c(C(=O)NCc2cncn2C)cnn1-c1ncc(C)c(-c2cccs2)n1")
2.2

###

experiment: Clearance in monkey at 0.5 mg/kg, iv; assay type: ADME, organism-based, Macaca mulatta; design: dose 0.5 mg/kg, route intravenous; conditions: rhesus monkey, in vivo
measuredEndpoint: clearance (mL/min/kg)

>>> recordedvalue("COCc1c(C(=O)NCc2ccncc2)cnn1-c1ncc(C)c(-c2cccs2)n1")
21.7
>>> recordedvalue("CCOCc1c(C(=O)NCc2cncn2C)cnn1-c1ncc(C)c(N2CCCCC2)n1")
16.7

###

test: Permeability of the compound at pH 7.4 by PAMPA; type: ADME; conditions: read-out: permeability
measuredEndpoint: Papp (×10⁻⁶ cm/s)

>>> recordedvalue("CCOCc1c(C(=O)NCc2cncn2C)cnn1-c1ncc(C)c(N2CCCCC2)n1")
3.5

P: CCCCc1c(C(=O)NCc2cncn2C)cnn1-c1ncc(C)c(-c2cccs2)n1
Q: CCOCc1c(C(=O)NCc2cncn2C)cnn1-c1ncc(C)c(N2CCC2)n1
R: CCOCc1c(C(=O)NCc2cncn2C)cnn1-c1ncc(C)c(N2CCCC2)n1
QUERY: Order by Papp, ascending. Output spec: a listing of the labels in the requested order.
RESULT: Q, R, P

a: CCOCc1c(C(=O)NCc2cncn2C)cnn1-c1ncc(C)c(NC2CCC2)n1
b: CCOCc1c(C(=O)NCc2cncn2C)cnn1-c1ncc(C)c(-c2cccs2)n1
QUERY: Pick one: a or b . Which has the bigger Papp number? Let me know the label of the one you choose.
RESULT: b
(b: 4 ×10⁻⁶ cm/s, a: 1.6 ×10⁻⁶ cm/s)

###

experiment: Metabolic stability in mouse liver microsomes assessed as compound remaining at 1 uM after 15 mins by LC/MS analysis; assay type: ADME, Microsome; settings: read-out: Stability
measuredEndpoint: remaining at 0.25 h, 1 µM (%)

>>> recordedvalue("CCCCc1c(C(=O)NCc2cnc(C)n2C)cnn1-c1ncc(C)c(-c2cccs2)n1")
6
>>> recordedvalue("CCCc1c(C(=O)NCc2ccncc2)cnn1-c1ncc(C)c(-c2cccs2)n1")
1
>>> recordedvalue("CCCCc1c(C(=O)NCc2cncn2CC(=O)O)cnn1-c1ncc(C)c(-c2cccs2)n1")
93
>>> recordedvalue("CCCc1c(C(=O)NCc2cn(C)cn2)cnn1-c1ncc(C)c(-c2cccs2)n1")
4.7

I: CCCc1c(C(=O)NCc2cc(C)no2)cnn1-c1ncc(C)c(-c2cccs2)n1
II: CCCCc1c(C(=O)NCc2cncn2C)cnn1-c1ncc(C)c(-c2cccs2)n1
III: CCCCc1c(C(=O)NC2CCCc3ncn(C)c32)cnn1-c1ncc(C)c(-c2cccs2)n1 (stereo not given)
QUERY: Parameters: sort_field (remaining at 0.25 h, 1 µM), sort_dir (desc). Output spec: a listing of the labels in the requested order.
RESULT: II, I, III
(II: 56%, I: 11%, III: 5%)

a: CCCc1c(C(=O)N(CC)Cc2ccncc2)cnn1-c1ncc(C)c(-c2cccs2)n1
b: CCCCc1c(C(=O)NCc2ccnn2C)cnn1-c1ncc(C)c(-c2cccs2)n1
QUERY: Pick one: a or b . Which has the bigger remaining at 0.25 h, 1 µM number? Let me know the label of the one you choose.
RESULT: b
(b: 13%, a: 0%)
